Quick reference for Activation among some compounds
Test system: Human gammaherpesvirus 4
protocol.description: In vitro assay for EBV activation in Raji cells induced by 12-O-tetradecanoylphorbol-13-acetate (TPA) at the concentration of 1000 (mol ratio / 32 pmol TPA)
Type: functional
observed.property: Activation

[[record]]
compound = "Cc1ccc(C(=O)O[C@@H]2Cc3c(O)cc(O)cc3O[C@@H]2c2cc(O)c(O)c(O)c2)cc1"
observed_property = "Activation"
result = "10.4%"

[[record]]
compound = "CCc1ccc(C(=O)O[C@@H]2Cc3c(O)cc(O)cc3O[C@@H]2c2cc(O)c(O)c(O)c2)cc1"
observed_property = "Activation"
result = "13.2%"

[[record]]
compound = "Oc1cc(O)c2c(c1)O[C@H](c1cc(O)c(O)c(O)c1)[C@H](O)C2 [EPIGALLOCATECHIN]"
observed_property = "Activation"
result = "19.3%"

[[record]]
compound = "O=C(O[C@@H]1Cc2c(O)cc(O)cc2O[C@@H]1c1cc(O)c(O)c(O)c1)c1cc(O)c(O)c(O)c1 [EPIGALOCATECHIN GALLATE]"
observed_property = "Activation"
result = "15.5%"

[[record]]
compound = "CCCC(=O)O[C@@H]1Cc2c(O)cc(O)cc2O[C@@H]1c1cc(O)c(O)c(O)c1"
observed_property = "Activation"
result = "13.3%"


###

Quick reference for Activation among some compounds
Test system: Human gammaherpesvirus 4
protocol.description: In vitro assay for EBV activation in Raji cells induced by 12-O-tetradecanoylphorbol-13-acetate (TPA) at the concentration of 1000 (mol ratio / 32 pmol TPA)
Type: functional
observed.property: Activation

[[record]]
compound = "CCCCCCCCC(C)C(=O)O[C@@H]1Cc2c(O)cc(O)cc2O[C@@H]1c1cc(O)c(O)c(O)c1 (some centres undefined)"
assay_system = "Human gammaherpesvirus 4"
observed_property = "Activation"
result = "7.9%"

[[record]]
compound = "Cc1ccc(CC(=O)O[C@@H]2Cc3c(O)cc(O)cc3O[C@@H]2c2cc(O)c(O)c(O)c2)cc1"
assay_system = "Human gammaherpesvirus 4"
observed_property = "Activation"
result = "14%"

[[record]]
compound = "O=C(Cc1ccccc1)O[C@@H]1Cc2c(O)cc(O)cc2O[C@@H]1c1cc(O)c(O)c(O)c1"
assay_system = "Human gammaherpesvirus 4"
observed_property = "Activation"
result = "15.4%"

[[record]]
compound = "CCCCCCCCCCCCCC(=O)O[C@@H]1Cc2c(O)cc(O)cc2O[C@@H]1c1cc(O)c(O)c(O)c1"
assay_system = "Human gammaherpesvirus 4"
observed_property = "Activation"
result = "18.3%"


###

Tested on: Human gammaherpesvirus 4
protocol.description: In vitro assay for EBV activation in Raji cells induced by 12-O-tetradecanoylphorbol-13-acetate (TPA) at the concentration of 1000 (mol ratio / 32 pmol TPA)
Assay type: functional
Quick reference for Activation among some molecules
observed.property: Activation

[[record]]
molecule = "CCCCCCCCCC(=O)O[C@@H]1Cc2c(O)cc(O)cc2O[C@@H]1c1cc(O)c(O)c(O)c1"
observed_property = "Activation"
result = "9.3%"

[[record]]
molecule = "CCCCCCCC(=O)O[C@@H]1Cc2c(O)cc(O)cc2O[C@@H]1c1cc(O)c(O)c(O)c1"
observed_property = "Activation"
result = "6.5%"

[[record]]
molecule = "CCCCCC(=O)O[C@@H]1Cc2c(O)cc(O)cc2O[C@@H]1c1cc(O)c(O)c(O)c1"
observed_property = "Activation"
result = "12%"

[[record]]
molecule = "CCCCCCCCCCCCCCCCCC(=O)O[C@@H]1Cc2c(O)cc(O)cc2O[C@@H]1c1cc(O)c(O)c(O)c1"
observed_property = "Activation"
result = "31.5%"

[[record]]
molecule = "CCCCCCC(C)C(=O)O[C@@H]1Cc2c(O)cc(O)cc2O[C@@H]1c1cc(O)c(O)c(O)c1 (stereo partly drawn)"
observed_property = "Activation"
result = "5%"

[[record]]
molecule = "CCCCCCCCCCCC(=O)O[C@@H]1Cc2c(O)cc(O)cc2O[C@@H]1c1cc(O)c(O)c(O)c1"
observed_property = "Activation"
result = "12.7%"

[[record]]
molecule = "CCCCCCCCCCCCCCCC(=O)O[C@@H]1Cc2c(O)cc(O)cc2O[C@@H]1c1cc(O)c(O)c(O)c1"
observed_property = "Activation"
result = "22.7%"

[[record]]
molecule = "O=C(CCc1ccccc1)O[C@@H]1Cc2c(O)cc(O)cc2O[C@@H]1c1cc(O)c(O)c(O)c1"
observed_property = "Activation"
result = "17.8%"


###

Test system: Human gammaherpesvirus 4
protocol.description: In vitro assay for EBV activation in Raji cells induced by 12-O-tetradecanoylphorbol-13-acetate (TPA) at the concentration of 100 (mol ratio / 32 pmol TPA)
Format: functional
Quick reference for Activation among some compounds
observed.property: Activation

[[record]]
compound = "CCCCCCCCCCCCCCCCCC(=O)O[C@@H]1Cc2c(O)cc(O)cc2O[C@@H]1c1cc(O)c(O)c(O)c1"
assay_system = "Human gammaherpesvirus 4"
observed_property = "Activation"
result = ">86.9%"

[[record]]
compound = "CCCC(=O)O[C@@H]1Cc2c(O)cc(O)cc2O[C@@H]1c1cc(O)c(O)c(O)c1"
assay_system = "Human gammaherpesvirus 4"
observed_property = "Activation"
result = ">65.1%"

[[record]]
compound = "CCCCCCCC(=O)O[C@@H]1Cc2c(O)cc(O)cc2O[C@@H]1c1cc(O)c(O)c(O)c1"
assay_system = "Human gammaherpesvirus 4"
observed_property = "Activation"
result = ">56%"

[[record]]
compound = "CCCCCCC(C)C(=O)O[C@@H]1Cc2c(O)cc(O)cc2O[C@@H]1c1cc(O)c(O)c(O)c1 (some centres undefined)"
assay_system = "Human gammaherpesvirus 4"
observed_property = "Activation"
result = ">54.1%"

[[record]]
compound = "CCCCCC(=O)O[C@@H]1Cc2c(O)cc(O)cc2O[C@@H]1c1cc(O)c(O)c(O)c1"
assay_system = "Human gammaherpesvirus 4"
observed_property = "Activation"
result = ">62.4%"

[[record]]
compound = "CCCCCCCCCCCCCC(=O)O[C@@H]1Cc2c(O)cc(O)cc2O[C@@H]1c1cc(O)c(O)c(O)c1"
assay_system = "Human gammaherpesvirus 4"
observed_property = "Activation"
result = ">68.4%"

[[record]]
compound = "Cc1ccc(C(=O)O[C@@H]2Cc3c(O)cc(O)cc3O[C@@H]2c2cc(O)c(O)c(O)c2)cc1"
assay_system = "Human gammaherpesvirus 4"
observed_property = "Activation"
result = ">62.8%"

[[record]]
compound = "Cc1ccc(CC(=O)O[C@@H]2Cc3c(O)cc(O)cc3O[C@@H]2c2cc(O)c(O)c(O)c2)cc1"
assay_system = "Human gammaherpesvirus 4"
observed_property = "Activation"
result = ">65.9%"

[[record]]
compound = "CCc1ccc(C(=O)O[C@@H]2Cc3c(O)cc(O)cc3O[C@@H]2c2cc(O)c(O)c(O)c2)cc1"
assay_system = "Human gammaherpesvirus 4"
observed_property = "Activation"
result = ">64.3%"


###

Tested on: Human gammaherpesvirus 4
protocol.description: In vitro assay for EBV activation in Raji cells induced by 12-O-tetradecanoylphorbol-13-acetate (TPA) at the concentration of 100 (mol ratio / 32 pmol TPA)
Format: functional
observed.property: Activation

[[record]]
compound = "O=C(O[C@@H]1Cc2c(O)cc(O)cc2O[C@@H]1c1cc(O)c(O)c(O)c1)c1cc(O)c(O)c(O)c1 [EPIGALOCATECHIN GALLATE]"
observed_property = "Activation"
result = ">69%"

[[record]]
compound = "O=C(Cc1ccccc1)O[C@@H]1Cc2c(O)cc(O)cc2O[C@@H]1c1cc(O)c(O)c(O)c1"
observed_property = "Activation"
result = ">67.8%"

[[record]]
compound = "Oc1cc(O)c2c(c1)O[C@H](c1cc(O)c(O)c(O)c1)[C@H](O)C2 [EPIGALLOCATECHIN]"
observed_property = "Activation"
result = ">73%"

[[record]]
compound = "O=C(CCc1ccccc1)O[C@@H]1Cc2c(O)cc(O)cc2O[C@@H]1c1cc(O)c(O)c(O)c1"
observed_property = "Activation"
result = ">68.4%"

[[record]]
compound = "CCCCCCCCCCCCCCCC(=O)O[C@@H]1Cc2c(O)cc(O)cc2O[C@@H]1c1cc(O)c(O)c(O)c1"
observed_property = "Activation"
result = ">74.3%"

[[record]]
compound = "CCCCCCCCCC(=O)O[C@@H]1Cc2c(O)cc(O)cc2O[C@@H]1c1cc(O)c(O)c(O)c1"
observed_property = "Activation"
result = ">61.4%"

[[record]]
compound = "CCCCCCCCCCCC(=O)O[C@@H]1Cc2c(O)cc(O)cc2O[C@@H]1c1cc(O)c(O)c(O)c1"
observed_property = "Activation"
result = ">65.8%"

[[record]]
compound = "CCCCCCCCC(C)C(=O)O[C@@H]1Cc2c(O)cc(O)cc2O[C@@H]1c1cc(O)c(O)c(O)c1 (stereo partly drawn)"
observed_property = "Activation"
result = ">58.3%"

